# measurement target: HLA DRB1*04:01 (Homo sapiens, UniProt P01903+P01911, A100K/A169T/F76Y/I96L/K127E/L162R/M171V/N62H/P40V/Q125Y/R42H/S133A/S149N/S66Y/V115G/V209L/W38E)
# procedure details: biochemical
# Format: binding
# setup conditions: binder threshold 1,000 nM, read-out: In vitro (IC50 nM) DRB1*04:01
# label = Met if IC50 < 200 nM else Not met

Observe how each entry below is paired with its result.
- compound: "CC[C@H](C)[C@H](NC(=O)[C@@H]1CCCN1C(=O)[C@H](CCSC)NC(=O)[C@@H](N)CC(C)C)C(=O)N[C@@H](CC(C)C)C(=O)N[C@H](C(=O)N[C@@H](CC(C)C)C(=O)N[C@H](C(=O)N[C@@H](CCCNC(=N)N)C(=O)N[C@@H](C)C(=O)N[C@@H](CC(C)C)C(=O)N[C@H](C(=O)N[C@@H](C)C(=O)N[C@@H](CCC(=O)O)C(=O)N[C@@H](CO)C(=O)O)[C@@H](C)O)[C@@H](C)O)[C@@H](C)O"
  assigned label: "Met"
- compound: "CSCC[C@H](NC(=O)[C@@H](NC(=O)[C@@H]1CCCN1C(=O)[C@H](CC(C)C)NC(=O)[C@H](CC(N)=O)NC(=O)[C@H](Cc1ccc(O)cc1)NC(=O)[C@H](CCCNC(=N)N)NC(=O)[C@H](Cc1ccc(O)cc1)NC(=O)[C@H](Cc1ccc(O)cc1)NC(=O)[C@H](CC(=O)O)NC(=O)[C@H](Cc1ccc(O)cc1)NC(=O)[C@H](CC(=O)O)NC(=O)[C@@H](N)CO)[C@@H](C)O)C(=O)N[C@@H](CS)C(=O)N[C@@H](CC(=O)O)C(=O)O [Peptide 91]"
  assigned label: "Not met"
- compound: "CC(C)[C@H](NC(=O)[C@H](CO)NC(=O)[C@H](CC(N)=O)NC(=O)[C@H](C)NC(=O)[C@H](Cc1ccc(O)cc1)NC(=O)[C@H](C)NC(=O)[C@@H](NC(=O)[C@@H](NC(=O)[C@H](C)NC(=O)[C@H](CC(=O)O)NC(=O)CNC(=O)[C@H](CO)NC(=O)[C@@H](N)CO)[C@@H](C)O)[C@@H](C)O)C(=O)N[C@@H](Cc1ccccc1)C(=O)N[C@@H](CC(N)=O)C(=O)O [Peptide 137]"
  assigned label: "Not met"

## Task Consider the compound CC(C)C[C@H](NC(=O)[C@H](C)NC(=O)[C@H](CCCNC(=N)N)NC(=O)[C@@H](NC(=O)[C@H](CC(C)C)NC(=O)[C@@H](N)[C@@H](C)O)[C@@H](C)O)C(=O)N[C@H](C(=O)N[C@@H](C)C(=O)N[C@@H](CCC(=O)O)C(=O)N[C@@H](CO)C(=O)N[C@@H](Cc1c[nH]cn1)C(=O)N[C@H](C(=O)N[C@@H](CC(=O)O)C(=O)N[C@H](C(=O)N[C@@H](CC(=O)O)C(=O)O)[C@@H](C)O)C(C)C)[C@@H](C)O . Is its IC50 strictly less than 200 nM?
## Result Met

## Task Same lookup for CC[C@H](C)[C@H](NC(=O)[C@@H]1CCCN1C(=O)[C@H](CCSC)NC(=O)[C@H](CC(C)C)NC(=O)[C@H](CC(C)C)NC(=O)[C@H](CO)NC(=O)[C@H](Cc1ccc(O)cc1)NC(=O)[C@H](Cc1ccc(O)cc1)NC(=O)[C@@H](N)CO)C(=O)N[C@@H](CC(C)C)C(=O)N[C@H](C(=O)N[C@@H](CC(C)C)C(=O)N[C@H](C(=O)N[C@@H](CCCNC(=N)N)C(=O)N[C@@H](C)C(=O)O)[C@@H](C)O)[C@@H](C)O , please.
## Result Not met

## Task Same lookup for CC(C)C[C@H](NC(=O)[C@H](C)NC(=O)[C@H](CC(=O)O)NC(=O)[C@H](CCC(N)=O)NC(=O)[C@H](CC(=O)O)NC(=O)[C@H](CCC(=O)O)NC(=O)[C@@H](N)Cc1ccc(O)cc1)C(=O)N[C@@H](Cc1ccccc1)C(=O)N[C@@H](C)C(=O)N[C@@H](Cc1ccc(O)cc1)C(=O)N[C@H](C(=O)N[C@@H](CCCCN)C(=O)N[C@@H](CCCNC(=N)N)C(=O)N[C@@H](CC(N)=O)C(=O)N[C@H](C(=O)O)C(C)C)[C@@H](C)O [Peptide 105] , please.
## Result Not met
